target.or.system: T1, HLA-A*01:01 (human)
T1 construct: MHC class I monomer first loaded with a UV-sensitive peptide (not identified) that is cleaved by UV irradiation and exchanged for the tested peptide; captured on streptavidin plates, detected with anti-β2m; also called peptide-receptive MHC molecules
experimental.details: UV-ligand exchange, anti-b2m ELISA
This section presents binders with their documented peptide exchange yield values.

binder: TTDPKKFQY
peptide exchange yield: > 75%
//
binder: NSMLDPLVY
peptide exchange yield: > 75%
//
binder: QALQDKLQTFY
peptide exchange yield: 20 to 50%
//
binder: IPQDECLRY
peptide exchange yield: 50 to 75%
//
binder: YTDLTTIQV
peptide exchange yield: > 75%
//
binder: AQISDTGRY
peptide exchange yield: 20 to 50%
//
binder: YLESHGLAY
peptide exchange yield: > 75%
//
binder: FSEPFHLIVSY
peptide exchange yield: > 75%

Values were extracted from patent US20200087364A1.
